- Target under test: Glutathione peroxidase 1 (Homo sapiens) (UniProt P07203)
- Sequence (P07203 whole entry, looked up): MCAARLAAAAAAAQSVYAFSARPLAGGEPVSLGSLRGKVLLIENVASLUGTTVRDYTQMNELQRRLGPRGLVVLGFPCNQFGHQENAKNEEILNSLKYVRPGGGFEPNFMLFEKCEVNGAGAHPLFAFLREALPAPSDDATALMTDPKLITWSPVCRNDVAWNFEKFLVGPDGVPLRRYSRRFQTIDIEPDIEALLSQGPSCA
- Procedure text: Primary qHTS Assay for Inhibitors of Recombinant Selenoprotein Glutathione Peroxidase 1 (GPX1) (AID 1845191); note: nearly all actives have a fitted effect of over 65% in size; note: potency is the fitted concentration of half-maximal effect
- Condition notes: recombinant GPX1, GR-coupled NADPH fluorescence, 15 min; series mostly up to 48.8 µM
Results filed as inconclusive are left out. Calls of active or inactive are those of the source. Calls come from the whole dose curve; as a rule, active = well fitted inhibition curve with a large enough effect; inconclusive = small, poorly fitted or top-dose-only effect; inactive = flat fitted curve, though single readings scatter. Where a SMILES comes first, the peptide text is derived from it.
Measured attribute: Potency

Below, 5 molecules whose answers are already recorded.
Molecule	Potency
N=C1S/C(=C\c2ccc(-c3ccc4c(c3)C(=O)NC4=O)o2)C(=O)N1c1ccc(Br)cc1	inactive
Cc1c(F)cccc1NC(=O)Nc1ccc(Cl)c(S(=O)(=O)[C@H]2CCCNC2)c1O	inactive
CC1(C)C(N(O)C(=O)Nc2ccc(Cl)cc2)N(c2ccc(Cl)cc2)C(=O)N1CC(=O)N/N=C/C=C/c1ccc([N+](=O)[O-])o1 (stereo not drawn)	inactive
O=C1CCCC2=C1C(c1ccccc1I)N=C(Nc1nc3ccccc3o1)N2 (stereo not drawn)	inactive
CN1CCCN(C(=O)c2cccc(-c3ccc(/C=C4/C(=O)Nc5ccc(Cl)cc54)o3)c2)CC1	inactive

Recorded Potency for `CC(C)NCCCn1c(Sc2cc(Cl)cc(Cl)c2)nc2c(N)ncnc21` , please?
inactive

Now this one: `CN[C@@H](C)C(=O)N[C@H](C(=O)N1CCC[C@H]1C(=O)Nc1snnc1-c1ccccc1)C1CCCCC1`
inactive

Now this one: `CC(=O)[C@]1(N)Cc2c(O)c3c(c(O)c2[C@@H](O[C@H]2C[C@H](O)[C@H](O)CO2)C1)C(=O)c1ccccc1C3=O`
inactive

Now this one: N[C@@H](CCC(=O)O)C(=O)N[C@@H](Cc1c[nH]c2ccccc12)C(=O)O (H-Glu-Trp-OH)
inactive

Now this one: `Nc1nc(N)c2nc(-c3cccc(Cl)c3)c(N)nc2n1`
4.09 µM (active)

Now this one: `CCC[C@H](NC(=O)/C(C#N)=C/c1cccc(Br)n1)c1ccccc1`
inactive

----------
- Target under test: Calcium and integrin-binding protein 1 (Homo sapiens)
- Procedure text: Confirmatory qHTS for Identification of Calcium Integrin Binding Protein 1 (CIB1) Competitor (AID 1508617); note: nearly all actives have a fitted effect of over 65% in size
- Condition notes: CIB1 binding competition assay, biochemical qHTS; series mostly up to 114 µM
Results filed as inconclusive are left out. The source made the active and inactive calls. Calls follow the shape of the dose curve; as a rule, active = well fitted inhibition curve with a large enough effect; inconclusive = small, poorly fitted or top-dose-only effect; inactive = no such curve, though single readings can be large or run the other way.
Permitted responses: active, inactive

A selection of reference data follows.
Compound	Category
O=C1CCCC2=C1C(c1ncccc1C(F)(F)F)N=C(Nc1nc3ccccc3o1)N2 (stereo not given)	inactive
O=S(=O)(Nc1nccs1)c1ccc(Nc2nc(-c3ccccc3)cs2)cc1	active
Cc1ccc(OCCn2c(CCNC(=O)c3ccsc3)nc3ccccc32)cc1	inactive
O=C(O)c1ccccc1SC1=NS(=O)(=O)c2ccccc21	inactive

How was O=C(NC(c1ccco1)c1cc(Cl)c2cccnc2c1O)c1cccs1 (stereo not given) classified in this test?
inactive

Now this one: CC(OC(=O)c1ccc(S(C)(=O)=O)c([N+](=O)[O-])c1)C(=O)NC1C2CC3CC(C2)CC1C3 (stereo not given)
inactive

Now this one: `Oc1cccc2cc(N3CCCC3)cnc12`
inactive

Now this one: `NC(=O)c1cccc(-c2cnc3c(O)ccc(C(=O)O)c3c2)c1`
inactive

Now this one: O=C1CCCC2=C1C1(CCCOC1)N=C(Nc1nc3ccccc3o1)N2 (stereo not given)
inactive

Now this one: `Cc1cc(NS(=O)(=O)c2ccc(NC(=O)Cc3ccc(F)c(Cl)c3)cc2)no1`
inactive

----------
- Procedure text: G06 Cancer Cell Toxicity qHTS against the NCATS CANVASS Library (AID 1347368); note: nearly all actives have a fitted effect of over 60% in size
- Condition notes: G06 dog glioma cells, viability ATP luminescence, 72 h; series mostly up to 46.1 µM
Inconclusive results are not listed. Calls of active or inactive are those of the source. Calls come from the whole dose curve; as a rule, active = well fitted cell-killing curve with a large enough effect; inconclusive = small, poorly fitted or top-dose-only effect; inactive = flat fitted curve, though single readings scatter.
Permitted responses: active, inactive

A selection of reference data follows.
Compound	Category
C=C1CCC2C(C)(C(=O)O)CCC(CC/C(C)=C/C(=O)NC(CCC(N)=O)C(=O)O)[C@@]2(C)C1 (some centres undefined)	inactive
CCC(C)=C1OC(=O)[C@H](C)[C@H](O)[C@H](Cc2cccnc2)NC(=O)C(NC(=O)c2ncccc2O)C(C)OC1=O (some centres undefined)	inactive
Cc1cc(O)cc2c1C(=O)c1c(O)cc(O)cc1C2=O	inactive

Moving on to another compound below.
How was CC(=O)Oc1cc2c(c(OC(C)=O)c1C1CCc3cc(Cl)c(Cl)n31)C(=O)n1c-2cc(Cl)c1Cl (centres undefined) classified in this test?
active

----------
- Target under test: Glucocorticoid receptor (Homo sapiens)
- Procedure text: GR-EFC Redistribution (AID 451); note: potency is the fitted concentration of half-maximal effect
- Condition notes: CHO-K1 GR-EFC translocation, beta-gal luminescence, 2 h
The source made the active and inactive calls. The call rests on the fitted dose curve.
The reader will find reported Potency values listed item by item below.

Below, 3 compounds whose answers are already recorded.
Structure as smiles	Reported measurement
CN(C)Cc1ccccc1-c1nc(NC2CCNCC2)c2ccccc2n1	> 46 µM (inactive)
COCCn1c(=O)c(-c2ccccc2)nc2cnc(N3CCNCC3)nc21	> 46 µM (inactive)
c1cncc(CNc2ncncc2-c2ccc3c(c2)OCO3)c1	> 46 µM (inactive)

Shift focus to the following entry.
Recorded Potency for `CN(C)Cc1ccccc1-c1cc(NC2CC2)ncn1` , please?
> 46 µM (inactive)

----------
- Procedure text: AP1 Signaling Pathway (AID 357);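 note: ME-180 reporter cells stimulated with EGF at its EC50 level; % is set by controls: 0 for no effect and ±100 for the full control effect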
- Condition notes: ME-180 AP-1-bla reporter, EGF-induced, beta-lactamase ratio, 5 h; at 7.69 µM (top of the series) unless noted
Records with an inconclusive call do not appear. The source made the active and inactive calls. Calls follow the shape of the dose curve; as a rule, active = well fitted curve in either direction with a large enough effect (not every such curve was filed as active); inconclusive = small, poorly fitted or top-dose-only effect, or another doubt; inactive = flat fitted curve, though single readings scatter.
Measured attribute: activity change, negative = inhibition

Below, 5 compounds whose answers are already recorded.
Structure as smiles	Measured attribute	Reported measurement
COCCNc1cc(-c2ccccc2C(F)(F)F)ncn1	activity change, negative = inhibition	1.05% (inactive)
CN(C)c1ccnc(-c2cccc(NS(C)(=O)=O)c2)n1	activity change, negative = inhibition	-6.35% (inactive)
COc1ccc(Oc2ncc3nc(-c4ccc(OC)cc4)c(=O)n(C4CC4)c3n2)cc1	activity change, negative = inhibition	-17.1% (inactive)
COCCn1c(=O)cnc2cnc(OC)nc21	activity change, negative = inhibition	-9.59% (inactive)
CN1CCC2(CC1)CCN(C(=O)c1cc(C(F)(F)F)cc(C(F)(F)F)c1)CC2	activity change, negative = inhibition	-8.71% (inactive)

Recorded activity change, negative = inhibition for `COC(=O)N1CCC2(CC1)CN(c1cccc(-c3ccccc3)c1)C2` , please?
-12.5% (inactive)

Now this one: `CCn1c(=O)c2[nH]c(-c3ccccc3)nc2n(CC)c1=O`
-2.19% [at 38 µM] (inactive)

Now this one: `N=C(N)SCCc1cccc(CCSC(=N)N)c1`
7.41% [at 38 µM] (inactive)

Now this one: `O=C(c1csnn1)N1CCC2(CC1)CN(c1ccccc1)C2`
-4.3% (inactive)

Now this one: `COc1ncc2ncc(=O)n(C)c2n1`
-3.14% (inactive)

Now this one: `FC(F)(F)c1ccccc1-c1nc(NC2CCNCC2)c2ccccc2n1`
9.18% (inactive)

Now this one: `CN(C)Cc1ccccc1-c1cc(N(C)Cc2ccco2)ncn1`
4.53% (inactive)

Now this one: `O=C(c1cccc(F)c1)N1CCC2(CC1)CCN(c1ccccc1)CC2`
-0.371% (inactive)

Now this one: `Cc1nc2cnc(N(C)C)nc2n(C[C@H]2CCCO2)c1=O`
-5.35% (inactive)

Now this one: `Cc1ccccc1-c1cc(NCCN2CCOCC2)ncn1`
-3.13% (inactive)

Now this one: `Cc1noc(C)c1-c1cc(N(C)C)ncn1`
10% (inactive)

Now this one: `Cc1noc(C)c1C(=O)N1CCC2(CCN(C(=O)Nc3ccccc3)CC2)CC1`
-7.04% (inactive)

----------
- Procedure text: Stat Signaling Pathway (AID 446);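 note: ME-180 cervical cancer cells given 40 pM IL-6 alongside compound; SIE-controlled beta-lactamase reporter measured as 460/530 nm FRET emission ratio; % is set by controls: 0 for no effect and ±100 for the full control effect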
- Condition notes: ME-180 (cervical carcinoma) SIE beta-lactamase reporter, IL-6 stimulated, 5 h; at 7.69 µM (top of the series) unless noted
Results filed as inconclusive are left out.
Measured attribute: activity, negative = inhibition (%)
Please give a number only; it is taken to be in %.

Below, 2 compounds whose answers are already recorded.
Structure as smiles	Measured attribute	Reported measurement
CC(=O)N1CCC[C@@]2(CCN(Cc3ccccc3)C2)C1	activity, negative = inhibition	-3.06
Cn1cccc1C(=O)N1CCC[C@@]2(CCN(c3ccncc3)C2)C1	activity, negative = inhibition	7.16

Shift focus to the following entry.
Recorded activity, negative = inhibition for `O=C(Nc1ccccc1)N1CCC2(CC1)CCN(C(=O)c1cnccn1)CC2` , please?
2.97

----------
- Procedure text: NFAT Signaling Pathway (AID 444);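 note: carbachol stimulus at about its EC50 of 1 µM final; % is set by controls: 0 for no effect and ±100 for the full control effect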
- Condition notes: Jurkat NFAT-bla M1, carbachol, beta-lactamase ratio, 5 h; at 7.69 µM (top of the series) unless noted
Records with an inconclusive call do not appear.
The reader will find reported activity change, negative = inhibition values listed item by item below.
Please give a number only; it is taken to be in %.

Structure as smiles	Reported measurement
O=C(c1csnn1)N1CCC2(CC1)CN(c1ccccc1)C2	-3.86
CC(=O)N1CCC2(CCN(Cc3cc(C(F)(F)F)cc(C(F)(F)F)c3)CC2)CC1	-19.4
Cc1cnc(CNc2ccnc(-c3ccccc3Cl)n2)cn1	-3.33
COc1ccc(CNc2ncnc3ccc(-c4cccc(C#N)c4)cc23)c(OC)c1	16.5
Cc1cnc(CNc2ncncc2-c2cccnc2)cn1	-0.272
Cc1ccccc1-c1nc(NCc2cccs2)c2ccccc2n1	-9.98

Recorded activity change, negative = inhibition for `O=C(c1ccco1)N1CCC2(CCCN(C(c3ccccc3)c3ccccc3)C2)CC1` , please?
-80.8

Now this one: `CC(=O)NCCNc1nc(-c2cccnc2)nc2ccccc12`
0.668
